pIC50: −log10 of the molar value.
// Cholinesterase (Homo sapiens, UniProt P06276) pIC50 records

{"COMPOUND": "Cc1cccc2c1OP(=O)(OC[C@H]1C=CC(n3cnc4c(NC5CC5)nc(N)nc43)C1)OC2 (single isomer, unassigned)", "COMPARATIVE SIGN": "=", "pIC50": 5.89}
{"COMPOUND": "Cc1cccc2c1OP(=O)(OC[C@H]1O[C@@H](n3cc(F)c(=O)[nH]c3=O)C[C@@H]1O)OC2 (stereo partly drawn)", "COMPARATIVE SIGN": "<", "pIC50": 4.30}
{"COMPOUND": "Cc1cn([C@H]2C=C[C@@H](COP3(=O)OCc4cccc(C(C)(C)C)c4O3)O2)c(=O)[nH]c1=O (stereo partly drawn)", "COMPARATIVE SIGN": "=", "pIC50": 5.38}
{"COMPOUND": "Cc1cn(C2C=CC(COP3(=O)OCc4cc(CCC(=O)OC(C)(C)C)ccc4O3)O2)c(=O)[nH]c1=O (stereo not drawn)", "COMPARATIVE SIGN": "=", "pIC50": 5.36}
{"COMPOUND": "Cc1cccc2c1OP(=O)(OCC1OC(n3cc(C)c(=O)[nH]c3=O)CC1=O)OC2 (stereo not drawn)", "COMPARATIVE SIGN": "<", "pIC50": 4.30}
{"COMPOUND": "Cc1cn(C2C=CC(COP3(=O)OCc4cc(-c5ccccc5)ccc4O3)O2)c(=O)[nH]c1=O (stereo not drawn)", "COMPARATIVE SIGN": "=", "pIC50": 5.36}
{"COMPOUND": "COc1ccc2c(c1)CO[P@@](=O)(OC[C@@H]1C=CC(n3cc(C)c(=O)[nH]c3=O)O1)O2 (single isomer, unassigned)", "COMPARATIVE SIGN": "=", "pIC50": 5.74}
{"COMPOUND": "Cc1cn(C2C=CC(COP3(=O)Oc4ccccc4C(C(Cl)(Cl)Cl)O3)O2)c(=O)[nH]c1=O (stereo not drawn)", "COMPARATIVE SIGN": "=", "pIC50": 4.57}
